As shown below, each of these compounds has a reported zone of inhibition at 30 µg/mL value.
- Test system: Fusarium oxysporum
- Measurement protocol: Antifungal activity against Fusarium oxysporum at 30 ug/ml after 72 hrs by agar well diffusion method
- Format: functional
- Experimental conditions: read-out: DIZ
Numbered stars: 1 amine (or outer) side, 2 acyl side, 3 side chain; on linkers, the order of the positions; unused ones are H or OH. Peptide text beside a SMILES is read from it. * marks the point of attachment. Piperazinyl(4-(2,3-Cl2Ph)) = Clc1cccc(N2CCN(*)CC2)c1Cl; Thiocarbamoyl(N-4-ClPh) = S=C(Nc1ccc(Cl)cc1)*; Thiocarbamoyl(4-MeOPh) = COc1ccc(NC(=S)*)cc1; NH(4-MeO-phenyl) = COc1ccc(N*)cc1; NH(4-Cl-phenyl) = Clc1ccc(N*)cc1; X1 = Fc1ccc2c(C3CCN(*)CC3)noc2c1; CO = O=C([*:1])[*:2]

Compound: O=C(CNC(=S)Nc1ccc(Cl)cc1)N[C@@H](Cc1ccccc1)C(=O)NCC(=O)N[C@@H](Cc1ccccc1)C(=O)N1CCC[C@H]1C(=O)N1CCN(c2cccc(Cl)c2Cl)CC1 ({Thiocarbamoyl(N-4-ClPh)}-GFGFP-{Piperazinyl(4-(2,3-Cl2Ph))})
zone of inhibition at 30 µg/mL [mm]: 31
--
Compound: CC(C)[C@H](NC(=O)CNC(=S)Nc1ccc(Cl)cc1)C(=O)NCC(=O)N[C@H](C(=O)N1CCC[C@H]1C(=O)N1CCN(c2cccc(Cl)c2Cl)CC1)C(C)C ({Thiocarbamoyl(N-4-ClPh)}-GVGVP-{Piperazinyl(4-(2,3-Cl2Ph))})
zone of inhibition at 30 µg/mL [mm]: 29
--
Compound: COc1ccc(NC(=S)NCC(=O)N[C@@H](Cc2ccccc2)C(=O)NCC(=O)N[C@@H](Cc2ccccc2)C(=O)N2CCC[C@H]2C(=O)N2CCN(c3cccc(Cl)c3Cl)CC2)cc1 ({Thiocarbamoyl(4-MeOPh)}-GFGFP-{Piperazinyl(4-(2,3-Cl2Ph))})
zone of inhibition at 30 µg/mL [mm]: 29
--
Compound: CC[C@H](C)[C@H](NC(=O)CNC(=O)CNC(=O)Nc1ccc(Cl)cc1)C(=O)N1CCC[C@H]1C(=O)N1CCC(c2noc3cc(F)ccc23)CC1 ({NH(4-Cl-phenyl)-CO}-GGIP-X1)
zone of inhibition at 30 µg/mL [mm]: 26
--
Compound: CC[C@H](C)[C@H](NC(=O)CNC(=O)CNC(=O)Nc1ccc(OC)cc1)C(=O)N1CCC[C@H]1C(=O)N1CCC(c2noc3cc(F)ccc23)CC1 ({NH(4-MeO-phenyl)-CO}-GGIP-X1)
zone of inhibition at 30 µg/mL [mm]: 21
--
Compound: COc1ccc(NC(=O)NCC(=O)N[C@H](C(=O)NCC(=O)N[C@H](C(=O)N2CCC[C@H]2C(=O)N2CCC(c3noc4cc(F)ccc34)CC2)C(C)C)C(C)C)cc1 ({NH(4-MeO-phenyl)-CO}-GVGVP-X1)
zone of inhibition at 30 µg/mL [mm]: 27
--
Compound: COc1ccc(NC(=S)NCC(=O)NCC(=O)N[C@@H](Cc2ccccc2)C(=O)N2CCC[C@H]2C(=O)N2CCC(c3noc4cc(F)ccc34)CC2)cc1 ({Thiocarbamoyl(4-MeOPh)}-GGFP-X1)
zone of inhibition at 30 µg/mL [mm]: 25
--
Compound: COc1ccc(NC(=S)NCC(=O)N[C@H](C(=O)NCC(=O)N[C@H](C(=O)N2CCC[C@H]2C(=O)N2CCN(c3cccc(Cl)c3Cl)CC2)C(C)C)C(C)C)cc1 ({Thiocarbamoyl(4-MeOPh)}-GVGVP-{Piperazinyl(4-(2,3-Cl2Ph))})
zone of inhibition at 30 µg/mL [mm]: 24
--
Compound: O=C(CNC(=O)Nc1ccc(Cl)cc1)NCC(=O)N[C@@H](Cc1ccccc1)C(=O)N1CCC[C@H]1C(=O)N1CCC(c2noc3cc(F)ccc23)CC1 ({NH(4-Cl-phenyl)-CO}-GGFP-X1)
zone of inhibition at 30 µg/mL [mm]: 28
--
Compound: O=C(Nc1ccccc1F)N[C@@H](Cc1c[nH]c2ccccc12)C(=O)N1CCC(c2noc3cc(F)ccc23)CC1
zone of inhibition at 30 µg/mL [mm]: 8

###

- Test system: Staphylococcus aureus
- Measurement protocol: Antibacterial activity against coagulase-positive Staphylococcus aureus at 30 ug/ml after 24 hrs by agar well diffusion method
- Type: functional
- Experimental conditions: read-out: DIZ
Numbered stars: 1 amine (or outer) side, 2 acyl side, 3 side chain; on linkers, the order of the positions; unused ones are H or OH. Peptide text beside a SMILES is read from it. * marks the point of attachment. NH(4-MeO-phenyl) = COc1ccc(N*)cc1; NH(4-Cl-phenyl) = Clc1ccc(N*)cc1; X1 = Fc1ccc2c(C3CCN(*)CC3)noc2c1; NH(2-F-phenyl) = Fc1ccccc1N*; CO = O=C([*:1])[*:2]
Catalogue of zone of inhibition at 30 µg/mL values

Molecule: O=C(CNC(=O)Nc1ccc(Cl)cc1)NCC(=O)N[C@@H](Cc1ccccc1)C(=O)N1CCC[C@H]1C(=O)N1CCC(c2noc3cc(F)ccc23)CC1 ({NH(4-Cl-phenyl)-CO}-GGFP-X1)
System under test: Staphylococcus aureus
zone of inhibition at 30 µg/mL (mm): 21

Molecule: O=C(Nc1ccccc1F)N[C@@H](Cc1c[nH]c2ccccc12)C(=O)N1CCC(c2noc3cc(F)ccc23)CC1
System under test: Staphylococcus aureus
zone of inhibition at 30 µg/mL (mm): 8

Molecule: CC(C)[C@H](NC(=O)CNC(=O)Nc1ccc(Cl)cc1)C(=O)NCC(=O)N[C@H](C(=O)N1CCC[C@H]1C(=O)N1CCC(c2noc3cc(F)ccc23)CC1)C(C)C ({NH(4-Cl-phenyl)-CO}-GVGVP-X1)
System under test: Staphylococcus aureus
zone of inhibition at 30 µg/mL (mm): 27

Molecule: CC(C)[C@H](NC(=O)CNC(=O)Nc1ccccc1F)C(=O)NCC(=O)N[C@H](C(=O)N1CCC[C@H]1C(=O)N1CCC(c2noc3cc(F)ccc23)CC1)C(C)C ({NH(2-F-phenyl)-CO}-GVGVP-X1)
System under test: Staphylococcus aureus
zone of inhibition at 30 µg/mL (mm): 30

Molecule: COc1ccc(NC(=O)NCC(=O)NCC(=O)N[C@@H](Cc2ccccc2)C(=O)N2CCC[C@H]2C(=O)N2CCC(c3noc4cc(F)ccc34)CC2)cc1 ({NH(4-MeO-phenyl)-CO}-GGFP-X1)
System under test: Staphylococcus aureus
zone of inhibition at 30 µg/mL (mm): 17

###

- System: Xanthomonas oryzae
- Measurement protocol: Antibacterial activity against Xanthomonas oryzae at 30 ug/ml after 24 hrs by agar well diffusion method
- Format: functional
- Experimental conditions: read-out: DIZ
Numbered stars: 1 amine (or outer) side, 2 acyl side, 3 side chain; on linkers, the order of the positions; unused ones are H or OH. Peptide text beside a SMILES is read from it. * marks the point of attachment. Piperazinyl(4-(2,3-Cl2Ph)) = Clc1cccc(N2CCN(*)CC2)c1Cl; Thiocarbamoyl(N-2-FPh) = Fc1ccccc1NC(=S)*; NH(4-MeO-phenyl) = COc1ccc(N*)cc1; X1 = Fc1ccc2c(C3CCN(*)CC3)noc2c1; NH(2-F-phenyl) = Fc1ccccc1N*; CO = O=C([*:1])[*:2]
Catalogue of compounds with associated zone of inhibition at 30 µg/mL
Metric: zone of inhibition at 30 µg/mL (mm)

Compound: O=C(CNC(=O)Nc1ccccc1F)N[C@@H](Cc1ccccc1)C(=O)NCC(=O)N[C@@H](Cc1ccccc1)C(=O)N1CCC[C@H]1C(=O)N1CCN(c2cccc(Cl)c2Cl)CC1 ({NH(2-F-phenyl)-CO}-GFGFP-{Piperazinyl(4-(2,3-Cl2Ph))})
Metric: zone of inhibition at 30 µg/mL
Meas value: 38

Compound: COc1ccc(NC(=O)NCC(=O)N[C@H](C(=O)NCC(=O)N[C@H](C(=O)N2CCC[C@H]2C(=O)N2CCC(c3noc4cc(F)ccc34)CC2)C(C)C)C(C)C)cc1 ({NH(4-MeO-phenyl)-CO}-GVGVP-X1)
Metric: zone of inhibition at 30 µg/mL
Meas value: 33

Compound: O=C(CNC(=O)Nc1ccccc1F)N[C@@H](Cc1ccccc1)C(=O)NCC(=O)N[C@@H](Cc1ccccc1)C(=O)N1CCC[C@H]1C(=O)N1CCC(c2noc3cc(F)ccc23)CC1 ({NH(2-F-phenyl)-CO}-GFGFP-X1)
Metric: zone of inhibition at 30 µg/mL
Meas value: 40

Compound: O=C(CNC(=S)Nc1ccccc1F)NCC(=O)N[C@@H](Cc1ccccc1)C(=O)N1CCC[C@H]1C(=O)N1CCC(c2noc3cc(F)ccc23)CC1 ({Thiocarbamoyl(N-2-FPh)}-GGFP-X1)
Metric: zone of inhibition at 30 µg/mL
Meas value: 30

###

Listing: zone of inhibition at 30 µg/mL of selected molecules
- System: Fusarium oxysporum
- Measurement protocol: Antifungal activity against Fusarium oxysporum at 30 ug/ml after 72 hrs by agar well diffusion method
- Assay type: functional
- Experimental conditions: read-out: DIZ
Peptide text beside a SMILES is read from it. * marks the point of attachment. Piperazinyl(4-(2,3-Cl2Ph)) = Clc1cccc(N2CCN(*)CC2)c1Cl; Thiocarbamoyl(4-MeOPh) = COc1ccc(NC(=S)*)cc1; X1 = Fc1ccc2c(C3CCN(*)CC3)noc2c1
Metric: zone of inhibition at 30 µg/mL (mm)

Molecule: COc1ccc(NC(=S)NCC(=O)N[C@H](C(=O)NCC(=O)N[C@H](C(=O)N2CCC[C@H]2C(=O)N2CCC(c3noc4cc(F)ccc34)CC2)C(C)C)C(C)C)cc1 ({Thiocarbamoyl(4-MeOPh)}-GVGVP-X1)
Meas value: 26
//
Molecule: COc1ccc(NC(=S)NCC(=O)N[C@@H](Cc2ccccc2)C(=O)NCC(=O)N[C@@H](Cc2ccccc2)C(=O)N2CCC[C@H]2C(=O)N2CCC(c3noc4cc(F)ccc34)CC2)cc1 ({Thiocarbamoyl(4-MeOPh)}-GFGFP-X1)
Meas value: 33
//
Molecule: CC[C@H](C)[C@H](NC(=O)CNC(=O)CNC(=S)Nc1ccc(OC)cc1)C(=O)N1CCC[C@H]1C(=O)N1CCN(c2cccc(Cl)c2Cl)CC1 ({Thiocarbamoyl(4-MeOPh)}-GGIP-{Piperazinyl(4-(2,3-Cl2Ph))})
Meas value: 23
